System: 786-0 renal
METHOD: NCI tumour cell line growth inhibition, 48 h; in the data active = GI50 below about 0.43 µM; inactive = the rest
Assign a class; possible classes are active, inactive

The following compounds have reported results that may help.
{"COMPOUND": "COc1cc(OC)cc(C2C3=C(COC3=O)Nc3cc(OC)ccc32)c1 (stereo not drawn)", "MEASURED_TARGET": "786-0 renal", "CLASS_NAME": "active"}
{"COMPOUND": "CC/C(Cc1ccccc1)=C(\\c1ccc(OCCN2CCCC2)cc1)c1ccc(OC(=O)NCc2ccccc2)cc1", "MEASURED_TARGET": "786-0 renal", "CLASS_NAME": "inactive"}
{"COMPOUND": "Cc1ccc(-c2nc(/C=N/Nc3cc(C)nc4ccc(Cl)cc34)c(C)o2)cc1", "MEASURED_TARGET": "786-0 renal", "CLASS_NAME": "inactive"}

Asked: Hey, what did the test say about COc1ccc(C(=O)c2cc(C)c(OC)c(C)c2)c(OC)c1NC(C)=O ?
Given back: active

Asked: Hey, what did the test say about COc1ccccc1S(=O)(=O)Nc1ccc2c3c(cc(CCC(=O)NCCCCNc4cccc5c4C(=O)N(C4CCC(=O)NC4=O)C5=O)cc13)C(=O)N2C (stereo not drawn) ?
Given back: inactive

Asked: Hey, what did the test say about CS(=O)(=O)c1ccc(Nc2nc(N[C@H]3CCCC[C@H]3N)nc3cc[nH]c(=O)c23)cc1 ?
Given back: inactive

Asked: Hey, what did the test say about O=C(Nc1ccccc1I(=O)=O)C1CCCCC1 ?
Given back: inactive

Asked: Hey, what did the test say about Cc1ccc(N=C[N-]c2ccc(C)cc2)cc1.Cc1ccc(N=C[N-]c2ccc(C)cc2)cc1.O=C([O-])C(F)(F)F.O=C([O-])C(F)(F)F.[OH3+].[OH3+].[Rh+2].[Rh+2] ?
Given back: inactive

====

Below is a list of entries, each paired with its recorded TGI value.
Test system: HCC-2998 colon
METHOD: NCI tumour cell line growth inhibition, 48 h
Lab book: enter the figure in µM, no units written.

Here's what some known entries look like.
{"MOLECULE": "CCC(=O)OC1CCn2c1nc1c2C(=O)C(C)=C(NC(C)=O)C1=N (stereo not given)", "TGI, µM": 13}
{"MOLECULE": "Cc1c([C@H](C)[C@@H]2NC[C@@H](C)C[C@H]2O)ccc2c1C[C@H]1[C@H]2CC=C2C[C@@H](O)CC[C@@]21C", "TGI, µM": 30}
{"MOLECULE": "CCN(CC)CCCC(C)Nc1cc(-c2cccc(OC(F)(F)F)c2)nc2ccc(N3CCCC3)cc12 (stereo not given)", "TGI, µM": 2.98}
{"MOLECULE": "O=C(NCCCc1cn[nH]c1)c1ccc(-c2ccncc2)c(C#Cc2ccc(F)cc2)c1", "TGI, µM": 26.1}
{"MOLECULE": "CN(C)CC1CC/C(=C\\c2ccc3c(c2)OCO3)C1=O (stereo not given)", "TGI, µM": 50.7}

Now look at this one.
Asked: Dear colleague, I am looking for the recorded TGI of the following molecule: Cc1cc(S(=O)(=O)/N=C(/NN)Nc2ccc(Cl)cc2)c(S)cc1Cl
Given back: 23.8

====

Below is a list of entries, each paired with its recorded TGI value.
Test system: NCI-H23 lung
METHOD: NCI tumour cell line growth inhibition, 48 h

Here's what some known entries look like.
{"MOLECULE": "CN(C)CC1CC/C(=C\\c2ccc3c(c2)OCO3)C1=O (centres undefined)", "RESULT": "24.4 µM"}
{"MOLECULE": "CCSC1=CC2(O)N(CCc3ccc(OC)c(OC)c3)C(=O)CC2(C(=O)OC)CC1=O (centres undefined)", "RESULT": "33.2 µM"}
{"MOLECULE": "O=C1/C(=C/c2cccc3ccccc23)CCc2ccc([N+](=O)[O-])cc21", "RESULT": "> 100 µM"}
{"MOLECULE": "COc1ccc(-c2nc(-c3nc4ccc(C)cc4[nH]3)cc3c2[nH]c2ccccc23)cc1", "RESULT": "> 100 µM"}

Now look at this one.
Asked: Dear colleague, I am looking for the recorded TGI of the following molecule: O=C(NNc1ccc(Cl)cc1)C1CCC(CNS(=O)(=O)c2ccccc2Cl)CC1 (centres undefined)
Given back: 50.6 µM

====

Test system: CCRF-CEM leukemia
METHOD: NCI tumour cell line growth inhibition, 48 h
ASSAY_ENDPOINT: TGI (µM)
Lab book: enter the figure in µM, no units written.

{"COMPOUND": "c1ccc(OCCC[P+](c2ccccc2)(c2ccccc2)c2ccccc2)cc1", "TGI [µM]": 18.1}

Now look at this one.
Asked: Dear colleague, I am looking for the recorded TGI of the following compound: CCOC(=O)C(Cc1ccc(N(CCCl)CCCl)cc1)NC(=O)C(Cc1ccccc1)NC=O (stereo not given)
Given back: 0.241

====

Test system: SN12C renal
METHOD: NCI tumour cell line growth inhibition, 48 h
ASSAY_ENDPOINT: TGI

Here's what some known entries look like.
{"COMPOUND": "CCC[CH2][Sn]([CH2]CCC)([S]C#N)[S]C#N", "TGI": "2.52 µM"}
{"COMPOUND": "CCOC(=O)c1cc(Br)c(-c2onc(C)c2Br)[nH]1", "TGI": "> 100 µM"}
{"COMPOUND": "COC1=CC(=O)N(C)C(O)C1(C#N)OC1OC(CO)C(O)C(O)C1O (configuration not stated)", "TGI": "> 100 µM"}

Asked: Dear colleague, I am looking for the recorded TGI of the following compound: O=c1[nH]nc(Cc2ccc(Cl)cc2)n1/N=C/c1ccc([N+](=O)[O-])o1
Given back: > 100 µM

====

Test system: EKVX NSCLC
METHOD: NCI tumour cell line growth inhibition, 48 h; in the data active = GI50 below about 0.43 µM; inactive = the rest
Assign a class; possible classes are Y = active, N = inactive

The following molecules have reported results that may help.
{"MOLECULE": "[N-]=[N+]=NCCCn1c2c(c3ccc([N+](=O)[O-])cc3c1=O)C(=O)c1cc(Br)ccc1-2", "CLASS_NAME": "N"}
{"MOLECULE": "CCCCCC(O)C(O)CCC[C@H](O)[C@H]1CC[C@H]([C@H]2CC[C@H]([C@H](O)CCCCCCCCCCCCC3=C[C@H](C)OC3=O)O2)O1 (some centres undefined)", "CLASS_NAME": "N"}
{"MOLECULE": "COc1cc(OC)cc(C2C3=C(COC3=O)Nc3cc(OC)ccc32)c1 (centres undefined)", "CLASS_NAME": "Y"}

Asked: Hey, what did the test say about Cc1ccc(-c2nc(/C=N/Nc3cc(C)nc4ccc(Cl)cc34)c(C)o2)cc1 ?
Given back: N

====

Test system: LOX IMVI melanoma
METHOD: NCI tumour cell line growth inhibition, 48 h
Below is a list of entries, each paired with its recorded GI50 value.

Here's what some known entries look like.
{"COMPOUND": "COc1ccc(/C=C/c2c(C(=O)/C=C/c3ccc(C(F)(F)F)cc3)c(C)nc3ccccc23)cc1", "MEASURED_TARGET": "LOX IMVI melanoma", "GI50": "1.37 µM"}
{"COMPOUND": "CNCCCNc1nc2ccccc2c2c(=O)c3cc(OC)ccc3sc12", "MEASURED_TARGET": "LOX IMVI melanoma", "GI50": "1.57 µM"}
{"COMPOUND": "Cc1ccc(N=C[N-]c2ccc(C)cc2)cc1.Cc1ccc(N=C[N-]c2ccc(C)cc2)cc1.O=C([O-])C(F)(F)F.O=C([O-])C(F)(F)F.[OH3+].[OH3+].[Rh+2].[Rh+2]", "MEASURED_TARGET": "LOX IMVI melanoma", "GI50": "31.1 µM"}

Asked: Dear colleague, I am looking for the recorded GI50 of the following compound: CC(=O)OC12C=C(C)C(C(C)C1)C1C(=O)N(CCN3CCCCC3)C(=O)C12 (centres undefined)
Given back: > 50 µM

====

Below is a list of entries, each paired with its recorded TGI value.
Test system: KM12 colon
METHOD: NCI tumour cell line growth inhibition, 48 h

{"COMPOUND": "CC(C)(C)OC(=O)c1ccc(NCC2=C(Br)C(=O)C=CC2=O)cc1", "TGI": "> 100 µM"}

Asked: Dear colleague, I am looking for the recorded TGI of the following compound: CCN(CC)C(=O)CCN1CC1
Given back: > 10 µM

Asked: Dear colleague, I am looking for the recorded TGI of the following compound: Cn1cc(C2=C(c3c[nH]c4ccccc34)C(=O)NC2=O)c2ccccc21
Given back: > 25 µM

Asked: Dear colleague, I am looking for the recorded TGI of the following compound: O=[N+]([O-])c1ccc(Cl)c(CNc2ncnc3c2ncn3C2CCCCO2)c1 (stereo unspecified)
Given back: > 100 µM

====

System: NCI-H226 lung
METHOD: NCI tumour cell line growth inhibition, 48 h
ASSAY_ENDPOINT: GI50

{"COMPOUND": "COc1ccc(-c2nc(-c3nc4ccc(C)cc4[nH]3)cc3c2[nH]c2ccccc23)cc1", "MEASURED_TARGET": "NCI-H226 lung", "RESULT": "4.81 µM"}
{"COMPOUND": "CSc1nc2nc3c(nc2c(=O)n1C)C(=O)c1ccccc1C3=O", "MEASURED_TARGET": "NCI-H226 lung", "RESULT": "0.193 µM"}
{"COMPOUND": "O=C(Nc1ccccc1I(=O)=O)C1CCCCC1", "MEASURED_TARGET": "NCI-H226 lung", "RESULT": "> 100 µM"}

Asked: Dear colleague, I am looking for the recorded GI50 of the following compound: O=C1CSC(c2ccccc2Cl)N1c1nnc(Cn2cnnc2)o1 (centres undefined)
Given back: 17.3 µM

Asked: Dear colleague, I am looking for the recorded GI50 of the following compound: [N-]=[N+]=NCCCn1c2c(c3ccc([N+](=O)[O-])cc3c1=O)C(=O)c1cc(Br)ccc1-2
Given back: > 100 µM

Asked: Dear colleague, I am looking for the recorded GI50 of the following compound: O=C(/C=C/C=C/c1ccccc1)c1ccco1
Given back: 20.7 µM

Asked: Dear colleague, I am looking for the recorded GI50 of the following compound: Cc1cc(C)c(C#N)c(Sc2nc(C)c([N+](=O)[O-])c(C)c2C#N)n1
Given back: 2.99 µM

Asked: Dear colleague, I am looking for the recorded GI50 of the following compound: COc1cccc2cc(N(C)c3nc(C)nc4c3CCC4)ccc12
Given back: 12.7 µM

Asked: Dear colleague, I am looking for the recorded GI50 of the following compound: CS(=O)(=O)Nc1cccc(-c2ccc3ncnc(Nc4ccc(F)c(Cl)c4)c3c2)c1
Given back: 1.8 µM
